Experiment: cytotoxicity in HPDE-C7 cells, cell-based, fluorescence, HTS (AID 430);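 also: cells exposed to compound for 48 hours before viability readout; 0% = vehicle and 100% = reference cytotoxic drug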
Conditions: HPDE-C7 pancreatic duct cells viability, at 10 µM, active compounds read high
The whole screen tested about 63,000 compounds, of which about 1,100 (1.7%) were called active. This is one part of a sample in which actives are shown more often than they occur. Entries with a potency or affinity are not part of this list.
Below, each of the compounds is paired with its reported cytotoxicity value.

{"columns": ["COMPOUND", "cytotoxicity / %"],
 "data": [
  ["O=S(=O)(c1ccc(F)c(Cl)c1)N1CCCC1", 11.7],
  ["CCn1c2ccccc2c2cc(NC(=O)c3ccco3)ccc21", 57.2],
  ["CC(=O)c1sc(NC(=O)c2ccco2)nc1-c1ccccc1", -1],
  ["O=C(Nc1ccc(Oc2ccc(NC(=O)c3ccco3)c(NC(=O)c3ccco3)c2)cc1)c1ccco1", 25],
  ["Fc1ccc(Br)cc1C1C=C(c2cccnc2)Nc2ncnn21 (configuration not stated)", 16.3],
  ["O=C(COC(=O)CSCC(=O)N1CCCCC1)NCc1ccc(F)cc1", -5.4],
  ["Fc1ccc(Br)cc1C1C=C(c2ccc(Br)s2)Nc2ncnn21 (configuration not stated)", 55],
  ["COc1cccc(CC(NC(C)=O)C(=O)NC2CCN(c3nc(C)cc(C)c3C#N)CC2)c1 (configuration not stated)", 8.9],
  ["Cc1ccc(S(=O)(=O)NC2OC(=O)C(Cl)=C2Cl)cc1 (configuration not stated)", 11.4],
  ["O=C(OC1CCCCC1)c1ccc(NC(=O)c2ccco2)cc1", 58.1],
  ["COc1ccccc1C(=O)NCc1ccncc1", -7.2],
  ["COc1ccc(S(=O)(=O)N(C)CC(=O)O)c2ccccc12", 1.2]
]}
